Test system: Phakopsora pachyrhizi (F129L)
Experiment Summary: Protective control of soybean rust on soybeans (PHAKPA P2)
Type: in vivo
Measurement Context: protective P2, 16 ppm, soybean rust F129L isolate
Exercise: state measured % PHAKPA (F129L) Disease level P2 at 16 ppm for each of the compounds provided.
Answers are plain numbers, in %.

Study these solved cases before continuing.
Per the record, CO/N=C(/C(=O)OC)c1cccc(C)c1CO/N=C(\C)c1c(F)cc(Br)cc1C(F)(F)F has % PHAKPA (F129L) Disease level P2 at 16 ppm of 47

Form: compound = CNC(=O)/C(=N/OC)c1cccc(C)c1CO/N=C(\C)c1ccccc1Oc1ccccc1 ; % PHAKPA (F129L) Disease level P2 at 16 ppm = 40

Measured % PHAKPA (F129L) Disease level P2 at 16 ppm, CNC(=O)/C(=N/OC)c1cccc(C)c1CO/N=C(\C)c1ccc(F)cc1Cl : 1

CNC(=O)/C(=N/OC)c1cccc(C)c1CO/N=C(\C)c1cc(C(F)(F)F)ccc1C has a reported % PHAKPA (F129L) Disease level P2 at 16 ppm of 3

Dear colleague, could you please provide % PHAKPA (F129L) Disease level P2 at 16 ppm for the compounds listed below?
1. CNC(=O)/C(=N/OC)c1cccc(C)c1CO/N=C(\CC(C)C)c1cccc(C(F)(F)F)c1
2. CNC(=O)/C(=N/OC)c1cccc(C)c1CO/N=C(\C)c1cccc(N2CC(F)(F)C2)c1
3. CO/N=C(/C(=O)OC)c1cccc(C)c1CO/N=C(\C)c1ccc(OC(F)(F)F)cc1Cl
4. CO/N=C(/C(=O)OC)c1cccc(C)c1CO/N=C(\C)c1cc(Br)cc(F)c1F

## Output
73
15
6
8
